The measured values listed here are drawn from the supplement of paper PMC7125110.

B1: glmS ribozyme (parent)
chain: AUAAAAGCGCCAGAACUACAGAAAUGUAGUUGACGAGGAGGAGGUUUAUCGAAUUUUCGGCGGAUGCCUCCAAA

Variants of: B1
Test: kcat; higher = faster cleavage; RNA array
Details: with glucosamine-6-phosphate
Variants at the floor of the assay were thinned out.
So I've got a bunch of variants here, and I need their kcat values.
Reply with just the number (in s⁻¹).

U30A C67U has a reported kcat of 0.00166

G32U G51U U55A yielded kcat of 1.45e-05

Consider U46C U69C . Its measured kcat is 0.00112

According to the records, this variant C11G U30C U65G U69A displays kcat of 2.81e-05

Kindly note the recorded kcat for U54A G66C , which is 0.000876

Record A14C G40C , field kcat: 0.000718

In plain terms, A12U G66C has a documented kcat of 0.00201

Reported kcat of A36C A64U : 1.13e-05

Measured kcat of G32C A53C : 3.63e-05

Form: variant = G29A U30G ; kcat = 0.00554

What the record says about C11A A14C : kcat is 6.31e-05
